Entry source: patent US20220347180A1

tested on: MB3961 melanoma line; assay: ATP viability assay (Cell Titer-Glo); format: cell-based; conditions: Homo sapiens; MB3961, NRAS Q61K, 48 h
pIC50: −log10 of the molar value.
Parameter pIC50: see the listing below.

structure-smiles-string: Cc1c(-c2c(-c3ccc(F)o3)sc3ncnc(O[C@H](Cc4ccccc4OCc4ccnn4CC(F)(F)F)C(=O)O)c23)ccc(OCCN2CCN(C)CC2)c1Cl
comparison-symbol: =
pIC50: 5.54
//
structure-smiles-string: CC1(C)CCC(CN2CCN(c3ccc(C(=O)NS(=O)(=O)c4ccc(NCC5CCOCC5)c([N+](=O)[O-])c4)c(Oc4cnc5[nH]ccc5c4)c3)CC2)=C(c2ccc(Cl)cc2)C1
comparison-symbol: <
pIC50: 5.00
